B1: LARP4 (parent)
chain: WTVANMEEIKKLTTDPDLILEVLR

Variants of: B1
assay: protein stability index of a GFP-peptide fusion (GPS, HEK-293T) (PSI 1-6); higher = more stable;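 further: lentivirally expressed fusions sorted by FACS into six bins by GFP to DsRed ratio, PSI derived from sequencing read proportions per bin multiplied by bin number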
condition_summary: c terminus: a fixed tail appended
property: protein stability index

sequence_input=CTVANMEEIKKLTTDPDLILEVLR property="protein stability index" result=1.88
sequence_input=WTVANMEEIKKLTTDPDLILEVYR property="protein stability index" result=3.06
sequence_input=WTVAVMEEIKKLTTDPDLILEVLR property="protein stability index" result=1.85
sequence_input=WTVANMEEIKKMTTDPDLILEVLR property="protein stability index" result=2.06
